Test system: Human alphaherpesvirus 3
Measurement Protocol: Minimum inhibitory concentration required to reduce TK-VZV (07-1) virus-induced cytopathicity by 50%
Type: functional
Measured Attribute: MIC (µg/mL)
Dear colleague, please return just the value in µg/mL, with no unit written.

| Compound | Endpoint Unit | MIC |
| --- | --- | --- |
| O=c1[nH]c(=O)n([C@H]2C[C@H](O)[C@@H](CO)O2)cc1-c1cccs1 | µg/mL | 8 |
| C[Si](C)(C)C#Cc1ccc(-c2cn([C@H]3C[C@H](O)[C@@H](CO)O3)c(=O)[nH]c2=O)s1 | µg/mL | 21 |
| O=c1[nH]c(=O)n([C@H]2C[C@H](O)[C@@H](CO)O2)cc1-c1ccc([N+](=O)[O-])s1 | µg/mL | 40 |

# input for lookup
Would you kindly share the measured MIC for O=c1[nH]c(=O)n(C2O[C@H](CO)[C@@H](O)[C@@H]2O)cc1-c1ccc(Cl)s1 (stereo not given in full) ?
60

###

System: Human alphaherpesvirus 1
Measurement Protocol: Minimum inhibitory concentration required to reduce thymidine kinase deficient-HSV-1 (B2006) virus-induced cytopathicity by 50%
Type: functional
Entries and their MIC values follow.

In the examples that follow, each entry is paired with its recorded MIC.
| Molecule | MIC |
| --- | --- |
| O=c1[nH]c(=O)n([C@H]2C[C@H](O)[C@@H](CO)O2)cc1-c1ccoc1 | 100 µg/mL |
| O=c1[nH]c(=O)n(C2O[C@H](CO)[C@@H](O)[C@@H]2O)cc1-c1ccc(Br)s1 (some centres undefined) | > 100 µg/mL |
| O=c1[nH]c(=O)n([C@H]2C[C@H](O)[C@@H](CO)O2)cc1-c1ccno1 | 300 µg/mL |
| C=Cc1ccc(-c2cn([C@H]3C[C@H](O)[C@@H](CO)O3)c(=O)[nH]c2=O)s1 | > 200 µg/mL |
| C[Si](C)(C)C#Cc1ccc(-c2cn([C@H]3C[C@H](O)[C@@H](CO)O3)c(=O)[nH]c2=O)s1 | > 40 µg/mL |
| Cc1ccc(-c2cn([C@H]3C[C@H](O)[C@@H](CO)O3)c(=O)[nH]c2=O)s1 | 400 µg/mL |
| O=c1[nH]c(=O)n([C@H]2C[C@H](O)[C@@H](CO)O2)cc1-c1ccsc1 | 150 µg/mL |
| O=c1[nH]c(=O)n([C@H]2C[C@H](O)[C@@H](CO)O2)cc1-c1ccc(I)s1 | > 40 µg/mL |

Here is the next item to consider.
Notebook: pull reported MIC for Human alphaherpesvirus 1, entry O=c1[nH]c(=O)n(C2O[C@H](CO)[C@@H](O)[C@@H]2O)cc1-c1ccc(Cl)s1 (some centres undefined)
> 400 µg/mL

###

Quick list: MIC per entry.
System: Human alphaherpesvirus 2
Measurement Protocol: Minimum inhibitory concentration required to reduce herpes simplex virus-2 (HSV-2 (G)) virus-induced cytopathicity by 50%
Assay type: functional
Your answer should be a plain number; it is taken to be in µg/mL.

| Compound | MIC [µg/mL] |
| --- | --- |
| O=c1[nH]c(=O)n([C@H]2C[C@H](O)[C@@H](CO)O2)cc1-c1cccs1 | 50 |
| Cc1ccc(-c2cn([C@H]3C[C@H](O)[C@@H](CO)O3)c(=O)[nH]c2=O)s1 | 50 |
| O=c1[nH]c(=O)n([C@H]2C[C@H](O)[C@@H](CO)O2)cc1-c1ccsc1 | 70 |
| O=c1[nH]c(=O)n(C2O[C@H](CO)[C@@H](O)[C@@H]2O)cc1-c1ccc(Br)s1 (stereo partly drawn) | 70 |
| O=c1[nH]c(=O)n([C@H]2C[C@H](O)[C@@H](CO)O2)cc1-c1ccc([N+](=O)[O-])s1 | 150 |

Would you mind telling me what MIC value was observed for O=c1[nH]c(=O)n([C@H]2C[C@H](O)[C@@H](CO)O2)cc1-c1ccno1 ?
300

Requested field: MIC. Item: O=c1[nH]c(=O)n([C@H]2C[C@H](O)[C@@H](CO)O2)cc1-c1ccoc1
150

I'd like to know its MIC. The compound in question is O=c1[nH]c(=O)n(C2O[C@H](CO)[C@@H](O)[C@@H]2O)cc1-c1ccc(Cl)s1 (stereo partly drawn)
300

I would be grateful if you could share the reported MIC for O=c1[nH]c(=O)n([C@H]2C[C@H](O)[C@@H](CO)O2)cc1/C=C/Br [BRIVUDINE] .
70

###

Tested on: Human alphaherpesvirus 1
Measurement Protocol: Minimum inhibitory concentration required to reduce thymidine kinase deficient-HSV-1 (B2006) virus-induced cytopathicity by 50%
Type: functional
Measured Attribute: MIC

For the record O=c1[nH]c(=O)n([C@H]2C[C@H](O)[C@@H](CO)O2)cc1-c1cccs1 , what value of MIC is listed for Human alphaherpesvirus 1?
> 100 µg/mL

What reported MIC corresponds to O=c1[nH]c(=O)n([C@H]2C[C@H](O)[C@@H](CO)O2)cc1/C=C/Br on Human alphaherpesvirus 1?
> 200 µg/mL

Item O=c1[nH]c(=O)n([C@H]2C[C@H](O)[C@@H](CO)O2)cc1-c1ccc([N+](=O)[O-])s1 with Human alphaherpesvirus 1 - MIC?
> 200 µg/mL

###

System: Human alphaherpesvirus 1
Measurement Protocol: Minimum inhibitory concentration required to reduce herpes simplex virus-1 (HSV-1 (KOS)) virus-induced cytopathicity by 50%
Type: functional
I'd appreciate it if you marked entries MET when MIC is lower than 0.5 µg/mL and NOT MET when it is not.

Past entries and their recorded results:
| Molecule | System | Class Name |
| --- | --- | --- |
| O=c1[nH]c(=O)n(C2O[C@H](CO)[C@@H](O)[C@@H]2O)cc1-c1ccc(Cl)s1 (stereo partly drawn) | Human alphaherpesvirus 1 | MET |
| O=c1[nH]c(=O)n(C2O[C@H](CO)[C@@H](O)[C@@H]2O)cc1-c1ccc(Br)s1 (stereo partly drawn) | Human alphaherpesvirus 1 | MET |
| C=Cc1ccc(-c2cn([C@H]3C[C@H](O)[C@@H](CO)O3)c(=O)[nH]c2=O)s1 | Human alphaherpesvirus 1 | NOT MET |
| O=c1[nH]c(=O)n([C@H]2C[C@H](O)[C@@H](CO)O2)cc1-c1ccsc1 | Human alphaherpesvirus 1 | MET |
| O=c1[nH]c(=O)n([C@H]2C[C@H](O)[C@@H](CO)O2)cc1-c1ccno1 | Human alphaherpesvirus 1 | NOT MET |

Quick check: MIC of O=c1[nH]c(=O)n([C@H]2C[C@H](O)[C@@H](CO)O2)cc1/C=C/Br under 0.5 µg/mL?
MET

Threshold test, MIC < 0.5 µg/mL: Cc1ccc(-c2cn([C@H]3C[C@H](O)[C@@H](CO)O3)c(=O)[nH]c2=O)s1
MET

Below 0.5 µg/mL on MIC? Entry C[Si](C)(C)C#Cc1ccc(-c2cn([C@H]3C[C@H](O)[C@@H](CO)O3)c(=O)[nH]c2=O)s1
MET

For this molecule, is MIC lower than 0.5 µg/mL? O=c1[nH]c(=O)n([C@H]2C[C@H](O)[C@@H](CO)O2)cc1-c1ccc(I)s1
MET

For this molecule, is MIC lower than 0.5 µg/mL? O=c1[nH]c(=O)n([C@H]2C[C@H](O)[C@@H](CO)O2)cc1-c1ccc([N+](=O)[O-])s1
NOT MET

# check: MIC < 0.5 µg/mL for C#Cc1ccc(-c2cn([C@H]3C[C@H](O)[C@@H](CO)O3)c(=O)[nH]c2=O)s1
MET

Input O=c1[nH]c(=O)n([C@H]2C[C@H](O)[C@@H](CO)O2)cc1-c1cccs1 ; condition: MIC strictly below 0.5 µg/mL. Does it hold?
NOT MET

###

Listing of recorded MIC by entry.
System: Human alphaherpesvirus 3
Measurement Protocol: Minimum inhibitory concentration required to reduce TK-VZV (07-1) virus-induced cytopathicity by 50%
Type: functional
Quick reminder: number only, in µg/mL, skip the unit.

| Compound | MIC / µg/mL |
| --- | --- |
| C=Cc1ccc(-c2cn([C@H]3C[C@H](O)[C@@H](CO)O3)c(=O)[nH]c2=O)s1 | 7 |
| O=c1[nH]c(=O)n([C@H]2C[C@H](O)[C@@H](CO)O2)cc1-c1ccc(I)s1 | 10 |
| O=c1[nH]c(=O)n([C@H]2C[C@H](O)[C@@H](CO)O2)cc1-c1ccsc1 | 35 |
| C#Cc1ccc(-c2cn([C@H]3C[C@H](O)[C@@H](CO)O3)c(=O)[nH]c2=O)s1 | 5 |

Now let's try a different one.
Please give the measured MIC for this compound: O=c1[nH]c(=O)n(C2O[C@H](CO)[C@@H](O)[C@@H]2O)cc1-c1ccc(Br)s1 (some centres not stated)
40
